# Tested on: MDA-MB-231 breast
# TEST: NCI-60 one-dose screen, 48 h (100 = growth as untreated, 0 = no growth, -100 = all killed)
# CONDITION_DESCRIPTION: 10 µM unless noted
# Description: Cells are grown in 96 well plates and exposed to the test compound for 48 hours. Compounds are tested at a single concentration, which is 10^-5 M for most compounds. The reported endpoint is percent growth (GI% or GIPRCNT), where numbers from 0 - 100% represent growth inhibition, and numbers from -100% - 0 represent cell death. For example, a value of 40 represents 60% growth inhibition. A value of 0 means no net growth occurred over the course of the experiment. […]
The panel holds about 83,000 compounds, 20% with a hit somewhere; the sample as a whole holds those more often.
Threshold-based label: growth under 50% gives T, growth not under 50% gives F.

                               entry_smiles  qualitative_label
0  Cc1cc(N2CCCCC2)nc(N(CCCNc2ccnc3cc(Cl)ccc23)Cc2ccco2)n1                  T
1  Cc1nn(-c2ccc(Cl)cc2)c(=O)n1CCn1cnc2ccccc21                  F
2  Cn1cc(-c2csc(-c3cn(CCNC(=O)OC(C)(C)C)c4ccccc34)n2)c2cccnc21                  F

I'd appreciate it if you could check whether Cn1c2c(c3ccc(Cl)cc31)-n1cccc1C2=O has growth smaller than 50%.
F

###

# Test system: MDA-MB-231 breast
# TEST: NCI-60 one-dose screen, 48 h (100 = growth as untreated, 0 = no growth, -100 = all killed)
# CONDITION_DESCRIPTION: 10 µM unless noted
This is part of a sample that, as a whole, favours compounds with a hit. Of some 83,000 tested, about 20% had one in any assay.
Quick list: growth per entry.
Express the result in % but write the number alone.

// solved cases for growth follow
ENTRY_SMILES	TEST_TARGET	growth [%]
COc1cc2c(cc1-c1c(C)noc1C)ncc1nc(C3CCCCC3)n([C@@H](C)COC(F)F)c12	MDA-MB-231 breast	41
CC(=O)c1c(C)[nH]c(-c2nc3ccc(N4CCN(C)CC4)cc3[nH]2)c1-c1ccc(N(C)C)cc1	MDA-MB-231 breast	36.1
Fc1ccc2[nH]cc(-c3nc(-c4c[nH]c5ncccc45)cs3)c2c1	MDA-MB-231 breast	44.4
Cc1cccc(C)c1NC(=O)CSC(=S)N1CCN(CCOCCO)CC1	MDA-MB-231 breast	116

Recall the recorded growth for COC(=O)[C@]12CC[C@@H](C(/C=C/c3cccnc3)=N/O)[C@@H]1[C@H]1CC[C@@H]3[C@@]4(C)CC(=C/c5cccnc5)/C(=N/O)C(C)(C)[C@@H]4CC[C@@]3(C)[C@]1(C)CC2 with MDA-MB-231 breast and state it.
45.5

###

Quick list: growth per entry.
# Tested on: DU-145 prostate
# TEST: NCI-60 one-dose screen, 48 h (100 = growth as untreated, 0 = no growth, -100 = all killed)
# CONDITION_DESCRIPTION: 10 µM unless noted
# Method: Cells are grown in 96 well plates and exposed to the test compound for 48 hours. Compounds are tested at a single concentration, which is 10^-5 M for most compounds. The reported endpoint is percent growth (GI% or GIPRCNT), where numbers from 0 - 100% represent growth inhibition, and numbers from -100% - 0 represent cell death. For example, a value of 40 represents 60% growth inhibition. A value of 0 means no net growth occurred over the course of the experiment. […]
This is part of a sample that, as a whole, favours compounds with a hit. Of some 83,000 tested, about 20% had one in any assay.
Express the result in % but write the number alone.

// solved cases for growth follow
In [3]: df
Out[3]:
                                   compound      test_target  property_measured  measured
0  O=C(NO)c1ccc(Cn2c(=O)n(CCc3ccc(O)cc3)c(=O)c3ccccc32)cc1  DU-145 prostate             growth      42.1
1  C/C(=N\NC(=O)C(C)SC(C)C(=O)N/N=C(\C)c1cccnc1)c1cccnc1 (stereo not drawn)  DU-145 prostate             growth       111
2       COc1ccc(NC(=O)c2ccoc2COc2ccccc2)cc1  DU-145 prostate             growth       106
3  COc1ccc(C2=NN(c3nc(-c4ccc(OC)cc4)c(C#N)c(=O)n3C)C(=O)CC2)cc1  DU-145 prostate             growth       115
4  COc1ccc(C2c3ccccc3NC(=O)N2C2CCN(C)CC2)c(OC)c1 (stereo not drawn)  DU-145 prostate             growth       105
5  Cc1cc(N2CCN(C)CC2)nc(N(CCNc2ccnc3cc(Cl)ccc23)Cc2ccco2)n1  DU-145 prostate             growth      56.8

Report growth for Oc1cccc2ccc(N/N=C/c3cc(CN4CCCCC4)c(O)c4ncccc34)nc12 please.
24.1

Try COc1cccc(-c2nn(-c3ccccc3)cc2-c2ccnc(NCCCN)c2)c1 next.
75.6

Try Fc1cccc(-c2[nH]nc3nc(Nc4cccnc4)sc23)c1 next.
29.4

Try CC[C@H](CC[C@@H](C)[C@H]1CC[C@H]2[C@@H]3/C(=C/c4cccnc4)C(=O)C4=CC(=O)CC[C@]4(C)[C@H]3CC[C@]12C)C(C)C next.
103

Try NC(Cc1ccc(O)cc1)C(=O)N/N=C/c1ccccc1O (stereo not drawn) next.
105

Try Cc1nn(-c2ccc(Br)cc2)c2nc3[nH]c(=O)[nH]c(=O)c3nc12 next.
114

Try Cc1cc2nc3c4cc(Cl)ccc4n(CCN(C)C)c3nc2cc1C next.
15.3

Try C=C(C)[C@@H]1CC[C@]2(C(=O)N3CCCNCC3)CC[C@]3(C)[C@H](CC[C@@H]4[C@@]5(C)CCC(=O)C(C)(C)[C@@H]5CC[C@]43C)[C@@H]12 next.
93.6
